Target: T1, human Ig1,2 TrkA (recombinant D4-D5 domain of human TrkA receptor) (human, UniProt P04629 191-392)
T1 construct: also called hTrkA Ig1,2; TrkA Ig1,2
T1 chain: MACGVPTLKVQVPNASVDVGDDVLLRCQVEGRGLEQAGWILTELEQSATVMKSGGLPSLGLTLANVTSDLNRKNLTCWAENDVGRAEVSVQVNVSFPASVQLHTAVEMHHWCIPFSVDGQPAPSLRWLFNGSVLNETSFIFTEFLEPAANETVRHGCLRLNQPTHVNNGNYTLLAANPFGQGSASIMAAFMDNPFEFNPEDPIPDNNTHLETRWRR
Assay: SPR (Biacore X-100); scFv immobilised on CM5 chip, human Ig1,2 TrkA injected
pKd: −log10 of the molar value.
So basically: pKd at 8 or higher? That is true. Lower than 8? That is false.

binder	assigned_label
anti-TrkA scFv CRB0069 (scFv, From hSPLINT_09 selection) scFv: QPGLTQPPSASGTPGQRVTISCTGSSSNVGAGYTVHWYQQLPGTAPTLLIYDNNNRPSGVPDRFSGSRSGTSASLAITGLRAEDEADYYCQSYDRSRVYVFGTGTKLTVLSGGSTSGSGKPGSGEGSSGTQVQLQQSGPGLVKPSQTLSLTCAISGDSVSSNSAAWNWIRQSPSRGLERLGRTYYRSKWYNDYAESVKSRIIINSGTSKNQFSLHLNSVTPEDTAVYYCGRAKDGWYDAFDIWGQGTTVTVSS	true
anti-TrkA scFv CRB0072 (scFv, From hSPLINT_09 selection) scFv: DIQMTQSPISLSATVGDRVTITCRASQSIGRYLNWYQQKPGKAPKLLIYGASSLESGVPSRFSGSGSGTVFTLTISGLQPEDFATYCCQQSHSTAWTFGQGTKVEIKSGGSTSGSGKPGSGEGSSGTEVQLVETGGGLVQPGSSLRLSCATSGFTFINYGVHWVRQPPGKGLEWVASIWYEGSNEKYADSVKGRFTISRDNSRYTLHLQLNSLRAEDTADYYCVRDRGTGDYRNSRFYYGMDVWGQGTTVTVSS	true
anti-TrkA scFv CRB0082 (scFv, From hSPLINT_09 selection) scFv: SYVLTQPPSVSVAPGTTARLSCEATKIGSQRLHWYQQKPGQAPVMVISFDSDRPSGIPDRFSGSRSGNTATLTISGVEAGDEADYYCNSRDSSGYHLVFGGGTKLTVLSGGSTSGSGKPGSGEGSSGTQVQLQQSGPGLVKPSQTLSLTCAISGDSVSSFTVAWNWIRQSPSRGLERLGRTYRRSKDYAEYMRSRLTINADTSKNQLSLQLDSVTPDDTAVYYCARGQNSAFDLWGQRTMVTVSS	false

Here is the next item to consider.
Qu. Item anti-TrkA scFv CRB0088 (scFv, From hSPLINT_09 selection) scFv: QPVLTQSPPASASLGASVKLTCTLSSGHSSYAIAWHQQQPEKGPRYLMKVNSDGSHNKGDGIPDRFSGSRSGAERYLTISSLHSEDEADYYCQTWGAGGVVFGGGTKLTVLSGGSTSGSGKPGSGEGSSGTEVQLLESGGGLVQPGGSLRLSCAASGFTFSDHYMDWVRQAPGKGLEWVGRIRNKANSYTTEYAASVKGRFTISRDDSKKTLYLQMTSLKTDDTALYYCARDLGASDAFDLWGQGTMVTVSS with pKd of 8 or above?
Ans. true
